The reported numbers originate from PubChem BioAssay.

- ASSAY: human hepatoma cell viability loss – ATP luminescence, cytotoxicity control for P. falciparum antimalarial project, primary screen (AID 2303);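 also: 0% = DMSO wells and 100% = digitonin-killed cells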
- ASSAY SETUP: HepG2 viability, 24-48 h, at 10 µM, stronger effect = higher value
Activity calls are given as the source filed them.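 The calls were made as follows: active = inhibition above 50%; inactive = the rest.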
Examples of compounds with documented inhibition follow.

// below: answered compounds
Cc1nc(-c2cccc(NC(C)C(=O)Nc3cc(C(F)(F)F)ccc3N3CCOCC3)c2)cs1 (stereo not drawn) : 3% (inactive)
COc1ccc2nccc([C@@H](O)CN3CCC(NCCOc4cccc(C(F)(F)F)c4Cl)CC3)c2c1 : 13% (inactive)

Ask: Please report the recorded inhibition for N#Cc1ccc(NC(=O)c2ccc(C(=O)NCCCCN3CCC(c4ccc5c(c4OCCOC4CCCCO4)CCCC5)CC3)cc2)cc1 (stereo not drawn) .
Reply: 72% (active)

Ask: Please report the recorded inhibition for Cc1cc(N)c2cc(NC(=O)CCC(=O)Nc3ccc4nc(C)cc(N)c4c3)ccc2n1 .
Reply: -2% (inactive)

Ask: Please report the recorded inhibition for COc1ccc(CCn2c(=N)c(C(=O)NCc3ccc(C)cc3)cc3c(=O)n4ccccc4nc32)cc1 .
Reply: 13% (inactive)

Ask: Please report the recorded inhibition for N#Cc1ccc(N(CCOc2ccc(Cl)c(Cl)c2)Cc2ccccc2C(F)(F)F)cc1C(F)(F)F .
Reply: 13% (inactive)

Ask: Please report the recorded inhibition for CCCCc1ccc(-c2ccc(-c3c(C)[nH]c(C)c(Br)c3=O)cn2)cc1 .
Reply: -7% (inactive)

Ask: Please report the recorded inhibition for COc1ccc2c(NN=Cc3ccc(N(C)C)cc3)ccnc2c1 .
Reply: 12% (inactive)

Ask: Please report the recorded inhibition for Cc1cccc(NC(=O)c2ccc(C(=O)NC3CCN(CC4CCCCC4)CC3)cc2)c1 .
Reply: 14% (inactive)

Ask: Please report the recorded inhibition for O=C(Nc1ccc(Cn2ncc(N3CCCNCC3)c(Cl)c2=O)cc1)Nc1cc(Cl)cc(Cl)c1 .
Reply: 3% (inactive)

Ask: Please report the recorded inhibition for Cn1cncc1-c1ccc2ncnc(Nc3ccc(OCc4ccccc4)cc3)c2c1 .
Reply: 4% (inactive)

Ask: Please report the recorded inhibition for COc1cccc(-c2ccc(O)c(CNCCc3cccc(F)c3)c2)n1 .
Reply: -14% (inactive)

Ask: Please report the recorded inhibition for O=C(NCc1cccnc1)C(c1cc2ccccc2o1)N1CCN(C(c2ccccc2)c2ccccc2)CC1 (stereo not drawn) .
Reply: 12% (inactive)

Ask: Please report the recorded inhibition for O=S(=O)(NC1CCCCN(Cc2ccccc2O)C1)c1ccc(C(F)(F)F)cc1 (stereo not drawn) .
Reply: 1% (inactive)

Ask: Please report the recorded inhibition for COc1cccc(C(=O)Nc2ccc(S(=O)(=O)c3cc4c(cc3OC)CCN(C)CC4)cc2)c1 .
Reply: -11% (inactive)

Ask: Please report the recorded inhibition for COc1ccc(N2CCN(CCCCNC(=O)c3ccc(NC(=O)c4cc(C(F)(F)F)cc(C(F)(F)F)c4)cc3)CC2)c(OC)c1 .
Reply: 30% (inactive)
